# maps each entry to its pIC50
target: Cytochrome P450 2C19 (Homo sapiens); test: Inhibition of CYP2C19 (unknown origin); format: ADME
Sequence (P33261 whole entry): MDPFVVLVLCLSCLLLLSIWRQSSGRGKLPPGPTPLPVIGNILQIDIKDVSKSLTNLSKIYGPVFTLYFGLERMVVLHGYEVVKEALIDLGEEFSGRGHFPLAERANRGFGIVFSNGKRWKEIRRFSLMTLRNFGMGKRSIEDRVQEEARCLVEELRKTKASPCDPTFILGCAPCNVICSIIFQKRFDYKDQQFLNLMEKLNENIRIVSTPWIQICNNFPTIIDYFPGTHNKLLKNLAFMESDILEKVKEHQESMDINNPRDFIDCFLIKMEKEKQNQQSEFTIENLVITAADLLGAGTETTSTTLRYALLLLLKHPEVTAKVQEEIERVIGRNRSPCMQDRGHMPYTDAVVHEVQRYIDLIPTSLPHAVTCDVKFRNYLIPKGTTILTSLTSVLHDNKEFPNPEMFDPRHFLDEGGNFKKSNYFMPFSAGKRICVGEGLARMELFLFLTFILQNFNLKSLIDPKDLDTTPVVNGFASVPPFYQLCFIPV
pIC50: −log10 of the molar value.
Measured Quantity: pIC50

Compound: Cc1ccc(NC(=O)Nc2cc(-c3ccccc3-c3nn[nH]n3)cc3c2OC(C)(C)[C@H]3c2ccccc2)cc1 (racemic)
Measured Quantity: pIC50
Numeric Readout: 6.38
//
Compound: Cc1ccc(NC(=O)Nc2cc(-c3ccccc3-c3nc(=O)[nH]o3)cc3c2OCCCC3c2ccccc2)cc1 (stereo in doubt; 19)
Measured Quantity: pIC50
Numeric Readout: 5.92

----------
assay: Stability in dog liver microsomes assessed as half life; format: ADME, Canis lupus familiaris, Microsome
Measured Quantity: half-life (min)

Molecule: Cc1ccc(NC(=O)Nc2cc(-c3ccccc3-c3nnn[nH]3)ccc2N(CC(C)C)CC(C)C)cc1
Measured Quantity: half-life
Numeric Readout: 11

Molecule: Cc1ccc(NC(=O)Nc2cc(-c3ccccc3-c3nn[nH]n3)cc3c2OCCCC3c2ccccc2)cc1 (stereo in doubt; 21)
Measured Quantity: half-life
Numeric Readout: 22

----------
assay: Stability in rat liver microsomes assessed as half life; assay type: ADME, Microsome
In this section we review reported half-life values for a set of compounds.

Compound: Cc1ccc(NC(=O)Nc2cc(-c3ccccc3-c3nnn[nH]3)ccc2N(CC(C)C)CC(C)C)cc1
Result Unit: min
half-life: 22
//
Compound: Cc1ccc(NC(=O)Nc2cc(-c3ccccc3-c3nn[nH]n3)cc3c2OCCCC3c2ccccc2)cc1 (stereo in doubt; 21)
Result Unit: min
half-life: 54

----------
molecular target: Cytochrome P450 2D6 (Homo sapiens)
Sequence (P10635 whole entry): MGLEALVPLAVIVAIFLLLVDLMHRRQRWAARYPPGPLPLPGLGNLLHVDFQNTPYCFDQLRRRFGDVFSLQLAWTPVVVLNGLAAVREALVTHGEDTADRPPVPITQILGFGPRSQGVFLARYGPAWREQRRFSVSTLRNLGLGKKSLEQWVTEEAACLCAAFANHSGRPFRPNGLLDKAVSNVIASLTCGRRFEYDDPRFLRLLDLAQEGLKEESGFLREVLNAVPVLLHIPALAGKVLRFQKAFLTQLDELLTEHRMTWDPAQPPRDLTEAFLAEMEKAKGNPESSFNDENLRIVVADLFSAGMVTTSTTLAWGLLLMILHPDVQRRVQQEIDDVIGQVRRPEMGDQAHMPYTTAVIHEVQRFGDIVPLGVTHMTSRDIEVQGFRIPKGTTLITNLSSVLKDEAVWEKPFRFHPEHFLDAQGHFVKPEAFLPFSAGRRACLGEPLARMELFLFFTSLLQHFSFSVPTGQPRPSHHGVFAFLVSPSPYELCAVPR
pIC50: −log10 of the molar value.

Sample Smiles: Cc1ccc(NC(=O)Nc2cc(-c3ccccc3-c3nnn[nH]3)ccc2N(CC(C)C)CC(C)C)cc1
System Under Test: Cytochrome P450 2D6 (Homo sapiens)
pIC50: 4.74

----------
target: Indoleamine 2,3-dioxygenase 1 (Homo sapiens); test: Inhibition of IDO1 (unknown origin) expressed in human HeLa cells
Sequence (P14902 whole entry): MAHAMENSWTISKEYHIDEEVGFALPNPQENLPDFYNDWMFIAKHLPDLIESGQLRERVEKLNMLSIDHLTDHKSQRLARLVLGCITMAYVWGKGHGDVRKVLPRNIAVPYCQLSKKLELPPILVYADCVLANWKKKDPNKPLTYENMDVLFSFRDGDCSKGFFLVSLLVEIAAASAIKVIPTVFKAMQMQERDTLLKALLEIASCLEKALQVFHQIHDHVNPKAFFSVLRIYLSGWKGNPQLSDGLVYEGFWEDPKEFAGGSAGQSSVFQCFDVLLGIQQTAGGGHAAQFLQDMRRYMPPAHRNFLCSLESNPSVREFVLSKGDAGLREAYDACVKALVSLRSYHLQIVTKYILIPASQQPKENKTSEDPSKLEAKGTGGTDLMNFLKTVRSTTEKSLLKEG
pIC50: −log10 of the molar value.
Reported pIC50 by item:
Measured Quantity: pIC50

Compound: Cc1ccc(NC(=O)Nc2cc(-c3ccccc3-c3nn[nH]n3)cc3c2OC(C)(C)[C@H]3c2ccccc2)cc1 (racemic)
Measured Quantity: pIC50
Relational Operator: =
Numeric Readout: 8.20
--
Compound: CCCC(CCC)Oc1ccc(-c2ccccc2-c2nn[nH]n2)cc1NC(=O)Nc1ccc(C)cc1
Measured Quantity: pIC50
Relational Operator: =
Numeric Readout: 7.60
--
Compound: Cc1ccc(NC(=O)Nc2cc(-c3ccccc3-c3nn[nH]n3)cc3c2OCCCC3c2ccccc2)cc1 (stereo in doubt; 21)
Measured Quantity: pIC50
Relational Operator: =
Numeric Readout: 8.44
--
Compound: Cc1ccc(NC(=O)Nc2cc(-c3ccccc3-c3nc(=O)[nH]o3)cc3c2OCCCC3c2ccccc2)cc1 (stereo in doubt; 19)
Measured Quantity: pIC50
Relational Operator: =
Numeric Readout: 8.82
--
Compound: COc1ccc(-c2ccc(O[C@@H]3CCCC[C@H]3C)c(NC(=O)Nc3ccc(C)cc3)c2)cc1C(=O)O (racemic)
Measured Quantity: pIC50
Relational Operator: <
Numeric Readout: 6.00
--
Compound: C=CC1(C=C)Oc2c(NC(=O)Nc3ccc(C)cc3)cc(-c3ccccc3-c3nn[nH]n3)cc2[C@@H]1c1ccccc1
Measured Quantity: pIC50
Relational Operator: =
Numeric Readout: 8.47
--
Compound: C=C[C@@H]1Oc2c(NC(=O)Nc3ccc(C)cc3)cc(-c3ccccc3-c3nn[nH]n3)cc2[C@@H]1c1ccccc1 (racemic)
Measured Quantity: pIC50
Relational Operator: =
Numeric Readout: 8.23
--
Compound: Cc1ccc(NC(=O)Nc2cc(-c3ccccc3-c3nn[nH]n3)cc3c2OCCCC3c2ccccc2)cc1 (stereo in doubt; 22)
Measured Quantity: pIC50
Relational Operator: =
Numeric Readout: 7.82
--
Compound: Cc1ccc(NC(=O)Nc2cc(-c3ccccc3C(=O)O)ccc2O[C@@H]2CCCC[C@H]2C)cc1 (racemic)
Measured Quantity: pIC50
Relational Operator: =
Numeric Readout: 6.62
--
Compound: Cc1ccc(NC(=O)Nc2cc(-c3ccccc3-c3nnn[nH]3)ccc2N(CC(C)C)CC(C)C)cc1
Measured Quantity: pIC50
Relational Operator: =
Numeric Readout: 8.15
--
Compound: COc1ccc(-c2ccc(OC(C(C)C)C(C)C)c(NC(=O)Nc3ccc(C)cc3)c2)cc1C(=O)O
Measured Quantity: pIC50
Relational Operator: =
Numeric Readout: 5.80
--
Compound: CCCOc1c(CCC)cc(-c2ccccc2-c2nn[nH]n2)cc1NC(=O)Nc1ccc(C)cc1
Measured Quantity: pIC50
Relational Operator: =
Numeric Readout: 7.51
--
Compound: CC(C)CN(CC(C)C)c1ccc(-c2ccccc2C(=O)O)cc1NC(=O)Nc1ccccc1F
Measured Quantity: pIC50
Relational Operator: =
Numeric Readout: 7.89
--
Compound: C=C[C@H]1Oc2c(NC(=O)Nc3ccc(C)cc3)cc(-c3ccccc3-c3nnn[nH]3)cc2[C@@H]1c1ccccc1 (racemic)
Measured Quantity: pIC50
Relational Operator: =
Numeric Readout: 7.92
--
Compound: Cc1ccc(NC(=O)Nc2cc(-c3ccccc3-c3nn[nH]n3)cc3c2O[C@@H](C)C/C=C\[C@H]3c2ccccc2)cc1
Measured Quantity: pIC50
Relational Operator: =
Numeric Readout: 7.92
--
Compound: Cc1ccc(NC(=O)Nc2cc(-c3ccccc3-c3nn[nH]n3)cc3c2O[C@@H](C)CCC[C@H]3c2ccccc2)cc1
Measured Quantity: pIC50
Relational Operator: =
Numeric Readout: 7.60
--
Compound: Cc1ccc(NC(=O)Nc2cc(-c3ccccc3-c3nn[nH]n3)cc3c2OCC=CC3c2ccccc2)cc1 (racemic)
Measured Quantity: pIC50
Relational Operator: =
Numeric Readout: 7.96
--
Compound: Cc1ccc(NC(=O)Nc2cc(-c3ccccc3-c3nc(=O)[nH]o3)cc3c2OCCCC3c2ccccc2)cc1 (stereo in doubt; 20)
Measured Quantity: pIC50
Relational Operator: =
Numeric Readout: 8.34
